Values from patent US6461997B1

System: ABUTH (velvetleaf)
procedure-text: Pre-plant incorporated (PPI) herbicidal activity, warm season
Format: in vivo, Abutilon theophrasti
run-parameters: pre-plant incorporated; GR80 = lowest tested rate with 80% or greater inhibition; approx. 14 days after treating; 30/21° C.
Entries and their PPI activity (GR80) ABUTH values follow.
parameter-measured: PPI activity (GR80) ABUTH (g/ha)

compound	reported
CCSC(F)(F)S(=O)(=O)c1ncn(C(=O)N(CC)CC)n1 [Example 8]	300
C=C(C)CC(F)(F)S(=O)(=O)c1ncn(C(=O)N(CC)CC)n1 [Example 18]	100
CCN(CC)C(=O)n1cnc(S(=O)(=O)C(F)(F)Br)n1 [Example 1]	100
C=C(Br)CC(F)(F)S(=O)(=O)c1ncn(C(=O)N(CC)CC)n1 [Example 19]	30
CCN(CC)C(=O)n1cnc(S(=O)(=O)C(F)F)n1 [Example 15]	100
CCN(CC)C(=O)n1cnc(S(=O)(=O)C(F)(F)SCC(=O)OC)n1 [Example 11]	300
CCN(CC)C(=O)n1cnc(S(=O)(=O)C(F)(F)SCCOC)n1 [Example 13]	100
C=C(CC(F)(F)S(=O)(=O)c1ncn(C(=O)N(CC)CC)n1)C[Si](C)(C)C [Example 20]	300
C=CCC(F)(F)S(=O)(=O)c1ncn(C(=O)N(CC)CC)n1 [Example 17]	100
CCN(CC)C(=O)n1cnc(S(=O)(=O)C(F)(F)C(F)F)n1 [Example 16]	100

* * *

The reader will find reported Pre-emergence activity GR80, SASKR values listed item by item below.
System: SASKR (russian thistle)
procedure-text: Pre-emergence herbicidal activity, cool season
Type: in vivo, Salsola kali
run-parameters: lowest tested rate with 80% or greater inhibition; rates 300, 100, 30, 10 g/ha; about 14 days

compound-structure	tested-on	units-text	Pre-emergence activity GR80, SASKR
CCN(CC)C(=O)n1cnc(S(=O)(=O)C(F)(F)C(F)(F)Br)n1	SASKR (russian thistle)	g/ha	30
CN(C(=O)n1cnc(S(=O)(=O)C(F)(F)C(F)(F)Br)n1)c1ccccc1	SASKR (russian thistle)	g/ha	300
CCN(CC)C(=S)n1cnc(S(=O)(=O)C(F)(F)C(F)F)n1	SASKR (russian thistle)	g/ha	300
COCCN(C)C(=O)n1cnc(S(=O)(=O)C(F)(F)C(F)F)n1	SASKR (russian thistle)	g/ha	10
CCSC(F)(F)S(=O)(=O)c1ncn(C(=O)N(C)OC)n1	SASKR (russian thistle)	g/ha	30
CCN(CC)C(=O)n1cnc(S(=O)(=O)C(F)(F)SCC(=O)OC)n1	SASKR (russian thistle)	g/ha	300
C=CCC(F)(F)S(=O)(=O)c1ncn(C(=O)N(CC)CC)n1	SASKR (russian thistle)	g/ha	100
COCCN(C)C(=O)n1cnc(S(=O)(=O)C(F)(F)Cl)n1	SASKR (russian thistle)	g/ha	30
C#CCN(C)C(=O)n1cnc(S(=O)(=O)C(F)(F)C(F)(F)Br)n1	SASKR (russian thistle)	g/ha	100
CCCN(CC)C(=O)n1cnc(S(=O)(=O)C(F)F)n1	SASKR (russian thistle)	g/ha	30
C=CCN(C)C(=O)n1cnc(S(=O)(=O)C(F)F)n1	SASKR (russian thistle)	g/ha	10
CCSC(F)(F)S(=O)(=O)c1ncn(C(=O)N2CCCC2)n1	SASKR (russian thistle)	g/ha	100

* * *

System: AMARE (redroot pigweed)
procedure-text: Pre-plant incorporated (PPI) herbicidal activity, warm season
Format: in vivo, Amaranthus retroflexus
run-parameters: Amaranthus retroflexus; PPI application, 10 g/ha; read-out: Percent inhibition AMARE
Overview of reported inhibition at 10 g/ha across a group of molecules:

molecule	inhibition at 10 g/ha (%)
C=CCC(F)(F)S(=O)(=O)c1ncn(C(=O)N(CC)CC)n1 [Example 17]	60
CCN(CC)C(=O)n1cnc(S(=O)(=O)C(F)F)n1 [Example 15]	20
C=C(Br)CC(F)(F)S(=O)(=O)c1ncn(C(=O)N(CC)CC)n1 [Example 19]	0
C=C(C)CC(F)(F)S(=O)(=O)c1ncn(C(=O)N(CC)CC)n1 [Example 18]	30
CCN(CC)C(=O)n1cnc(S(=O)(=O)C(F)(F)Br)n1 [Example 1]	0

* * *

System: ALOMY (blackgrass)
procedure-text: Pre-emergence herbicidal activity, cool season
Type: in vivo, Alopecurus myosuroides
run-parameters: GR80 = lowest tested rate (300, 100, 30, 10 g/ha) with 80% or greater inhibition; approx. 14 days after treating; 18/13° C.
parameter-measured: Pre-emergence activity (GR80) ALOMY

molecule	parameter-measured	reported
COCCN(C)C(=O)n1cnc(S(=O)(=O)C(F)(F)Cl)n1	Pre-emergence activity (GR80) ALOMY	300 g/ha
C=CCN(C)C(=O)n1cnc(S(=O)(=O)C(F)F)n1	Pre-emergence activity (GR80) ALOMY	300 g/ha
CN(C)C(=O)n1cnc(S(=O)(=O)C(F)(F)C(F)F)n1	Pre-emergence activity (GR80) ALOMY	100 g/ha
O=C(N1CCCC1)n1cnc(S(=O)(=O)C(F)(F)C(F)F)n1 [Example 71]	Pre-emergence activity (GR80) ALOMY	300 g/ha
CN(C(=O)n1cnc(S(=O)(=O)C(F)(F)Cl)n1)C1CCCCC1	Pre-emergence activity (GR80) ALOMY	300 g/ha
CCCN(CC)C(=O)n1cnc(S(=O)(=O)C(F)(F)Br)n1	Pre-emergence activity (GR80) ALOMY	300 g/ha
O=C(N1CCCC1)n1cnc(S(=O)(=O)C(F)(F)Cl)n1	Pre-emergence activity (GR80) ALOMY	300 g/ha
CCN(CC)C(=O)n1cnc(S(=O)(=O)C(F)(F)SCCOC)n1	Pre-emergence activity (GR80) ALOMY	300 g/ha
CCSC(F)(F)S(=O)(=O)c1ncn(C(=O)N2CCCC2)n1	Pre-emergence activity (GR80) ALOMY	300 g/ha

* * *

Tested on: ALOMY (blackgrass)
procedure-text: Pre-plant incorporated (PPI) herbicidal activity, cool season
Format: in vivo, Alopecurus myosuroides
run-parameters: weed, PPI application, 30 g/ha

compound	Percent inhibition ALOMY (%)
CCN(CC)C(=O)n1cnc(S(=O)(=O)C(F)(F)Cl)n1 [Example 3]	60
CCN(CC)C(=O)n1cnc(S(=O)(=O)C(F)(F)SC)n1 [Example 9]	40
CCN(CC)C(=O)n1cnc(S(=O)(=O)C(F)(F)C(F)(F)Br)n1 [Example 4]	70
CCN(CC)C(=O)n1cnc(S(=O)(=O)C(F)(F)SCC(=O)OC)n1 [Example 11]	0
CCN(CC)C(=O)n1cnc(S(=O)(=O)C(F)(F)SCc2ccccc2)n1 [Example 10]	50
CCN(CC)C(=O)n1cnc(S(=O)(=O)C(F)(F)SCCOC)n1 [Example 13]	90
C=C(CC(F)(F)S(=O)(=O)c1ncn(C(=O)N(CC)CC)n1)C[Si](C)(C)C [Example 20]	0
CCN(CC)C(=O)n1cnc(S(=O)(=O)C(F)(F)F)n1 [Example 2]	50
CCN(CC)C(=O)n1cnc(S(=O)(=O)C(F)(F)C(F)F)n1 [Example 16]	95

* * *

Test system: SORVU (shattercane)
procedure-text: Pre-plant incorporated (PPI) herbicidal activity, warm season
Type: in vivo, Sorghum vulgare
run-parameters: PPI application, 300 g/ha

compound-structure	Percent inhibition SORVU (%)
CCN(CC)C(=O)n1cnc(S(=O)(=O)C(F)(F)Cl)n1	100
CCN(CC)C(=O)n1cnc(S(=O)(=O)C(F)(F)SC)n1	100
CCN(CC)C(=O)n1cnc(S(=O)(=O)C(F)(F)C(F)F)n1	100
CCN(CC)C(=O)n1cnc(S(=O)(=O)C(F)(F)SCC(=O)OC)n1	65
CCN(CC)C(=O)n1cnc(S(=O)(=O)C(F)(F)SCc2ccccc2)n1	95
CCN(CC)C(=O)n1cnc(S(=O)(=O)C(F)(F)SCCOC)n1	100
CCN(CC)C(=O)n1cnc(S(=O)(=O)C(F)(F)F)n1	95
C=C(CC(F)(F)S(=O)(=O)c1ncn(C(=O)N(CC)CC)n1)C[Si](C)(C)C	40
CCN(CC)C(=O)n1cnc(S(=O)(=O)C(F)(F)C(F)(F)Br)n1	100

* * *

Test system: SORHA (johnsongrass (seedling))
procedure-text: Pre-plant incorporated (PPI) herbicidal activity, warm season
Type: in vivo, Sorghum halepense
run-parameters: Sorghum halepense; PPI application, 900 g/ha; read-out: Percent inhibition SORHA
parameter-measured: inhibition at 900 g/ha (%)

compound-structure	tested-on	parameter-measured	reported
CCN(CC)C(=O)n1cnc(S(=O)(=O)C(F)(F)Br)n1	SORHA (johnsongrass (seedling))	inhibition at 900 g/ha	100
C=C(C)CC(F)(F)S(=O)(=O)c1ncn(C(=O)N(CC)CC)n1	SORHA (johnsongrass (seedling))	inhibition at 900 g/ha	100
CCN(CC)C(=O)n1cnc(S(=O)(=O)C(F)F)n1	SORHA (johnsongrass (seedling))	inhibition at 900 g/ha	95
C=CCC(F)(F)S(=O)(=O)c1ncn(C(=O)N(CC)CC)n1	SORHA (johnsongrass (seedling))	inhibition at 900 g/ha	100
C=C(Br)CC(F)(F)S(=O)(=O)c1ncn(C(=O)N(CC)CC)n1	SORHA (johnsongrass (seedling))	inhibition at 900 g/ha	100
CCSC(F)(F)S(=O)(=O)c1ncn(C(=O)N(CC)CC)n1	SORHA (johnsongrass (seedling))	inhibition at 900 g/ha	100
